- Measured Target: T1, Human VSIG4-L-Fc (human)
- T1 construct: also called hVSIG4-L-Fc; hVSIG4-L
- T1 sequence (chain, as listed by the source limits assumed): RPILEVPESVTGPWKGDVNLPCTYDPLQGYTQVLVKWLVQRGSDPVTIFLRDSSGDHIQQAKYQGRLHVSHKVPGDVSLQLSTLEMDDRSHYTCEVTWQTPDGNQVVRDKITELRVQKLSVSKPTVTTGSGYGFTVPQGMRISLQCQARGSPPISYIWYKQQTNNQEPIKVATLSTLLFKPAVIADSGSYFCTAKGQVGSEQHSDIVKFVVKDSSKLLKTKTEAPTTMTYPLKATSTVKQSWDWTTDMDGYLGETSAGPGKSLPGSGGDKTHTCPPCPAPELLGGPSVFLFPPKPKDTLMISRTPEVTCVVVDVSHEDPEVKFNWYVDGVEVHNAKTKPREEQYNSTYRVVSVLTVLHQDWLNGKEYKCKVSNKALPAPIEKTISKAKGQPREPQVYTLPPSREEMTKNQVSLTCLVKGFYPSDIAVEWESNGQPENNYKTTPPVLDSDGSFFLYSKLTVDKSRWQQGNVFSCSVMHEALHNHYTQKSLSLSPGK
- Test: BLI cross-blocking on hVSIG4-L-Fc, competitor 14C05 first
Measurement Name: binding signal (nm shift) (nm)
One number for each entry, in nm.

As a guide, the following entries are already answered.
INSERT INTO measurements (binder, unit_annotation, assay_value) VALUES
  ('1C6.D6 mouse/human chimeric IgG4 (S228P) kappa (antibody, V domains shown, also called 1C6.D6b) VH: QVQLQQPGAEMVRPGTSVKLSCKASGYTFTSYWMHWVKQRPGQGLEWIGKIDPSHNKTHYIQKFEDKATLTVDKSSSTAYMHLNSLTSEDSAVYYCVTWDGDFLYWGQGTLVTVSA VL: NIVLTQSPASLTVSLGQRATISCRASESVDSYGNSFMHWYQQKPGQPPKLLIYITSNLQSGVPARFSGGGSRTDFTLTIDPVEADDAATYYCQQNNEDPWTFGGGTKLEIKR', 'nm', 0.59),
  ('EU103.2 anti-VSIG4 antibody, human IgG4 (S228P) kappa (antibody, V domains shown, variable regions from U.S. Pat. Publ) VH: QVQLQESGPGLVKPSQTLSLTCSFSGISLTTSGMGVGWIRQPPGKGLEWLADIFWDDNKYYNPSLKSRVTISVDTSKNQFSLKLSSVTAADTAVYYCVRVYYKNDGYFDVWGQGTLVTVSS VL: EIVMTQSPATLSVSPGERATLSCRASKSVTTSGYSFMHWYQQKPGQAPRLLIYLASNLEPGIPARFSGSGSGTEFTLTISSLQSEDFAVYYCQHSRELPYTFGQGTKLEIKR', 'nm', 0.29);

[Q] Tell me binding signal (nm shift) reported for 14F8.H6 mouse/human chimeric IgG4 (S228P) kappa (antibody, V domains shown) VH: EVHLVESGGALVKPGGSLKLSCTASGFTFSNSVMSWIRQTPEKRLEWVATIGSGGTYIYYPDSVKGRFTISRDNSKNTLFLQMTSLRSEDTALYYCARHIYGYDVVDYWGQGTTLTVST VL: DIVMTQSHRFMSTSVGDRVSITCKASHDVSNVVAWYQQKPGQSPELLIYSASYRYTGVPARFTGSGSGTDFTFTISSVQAEDLAVYFCQQHFTTPLTFGAGTSLEVRR
[A] 0.15

// data source = patent US20230348603A1
